These data points were gathered from the supplement of paper PMC10567573.

B1: ATL3 (parent)
chain: EKALASILLQDHIRDLDVVVVSVA

Variants of: B1
PROTOCOL: protein stability index of a GFP-peptide fusion (GPS, HEK-293T) (PSI 1-6); higher = more stable;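 note: lentivirally expressed fusions sorted by FACS into six bins by GFP to DsRed ratio, PSI derived from sequencing read proportions per bin multiplied by bin number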
TEST_CONDITIONS: c terminus: a fixed tail appended
// map protein stability index to label using low group = under 2, middle group = from 2 up to 3, high group = 3 and over

Examples with answers:
- EKALASILLQDHIRDKDVVVVSVA [L16K]: low group
- EKALASIKLQDHIRDLDVVVVSVA [L8K]: low group

**Query** Class (by measured protein stability index) for EKALASILLQDHIFDLDVVVVSVA [R14F]
**Result** high group

**Query** Class (by measured protein stability index) for EKALASILLQDHIRDLDVGVVSVA [V19G]
**Result** middle group

**Query** Class (by measured protein stability index) for EKALASILLQDHIRDLDVVVVGVA [S22G]
**Result** low group

**Query** Class (by measured protein stability index) for EKALASKLLQDHIRDLDVVVVSVA [I7K]
**Result** middle group

**Query** Class (by measured protein stability index) for EKALASILLQDHIRDLDVVVVSVM [A24M]
**Result** low group

**Query** Class (by measured protein stability index) for CKALASILLQDHIRDLDVVVVSVA [E1C]
**Result** high group

**Query** Class (by measured protein stability index) for EKALASILLQDGIRDLDVVVVSVA [H12G]
**Result** high group

**Query** Class (by measured protein stability index) for EKALASTLLQDHIRDLDVVVVSVA [I7T]
**Result** middle group

**Query** Class (by measured protein stability index) for EKALASILLQDHIRDLDVVVVSHA [V23H]
**Result** low group

**Query** Class (by measured protein stability index) for EKELASILLQDHIRDLDVVVVSVA [A3E]
**Result** low group

**Query** Class (by measured protein stability index) for EKALASILLQDHIRDLDVVVVSFA [V23F]
**Result** high group
